Quick reference: fold above background of the listed items.
- target or system: recombinant human ATX beta isoform with N-terminal purification tag (human, UniProt Q13822 49-863)
- assay explanation: Fab-His ELISA

Sure, the documented fold above background for Fab F50 (VH H25, VL L46) (Fab, V domains shown, Soluble Fab-His) VH: QVQLVQSGAEVKKPGSSVKVSCKASGGTFSSYAISWVRQAPGQGLEWMGGIIPIFGTANYAQKFQGRVTITADESTSTAYMELSSLRSEDTAVYYCARDDLALGRLDYWGQGTLVTVSS VL: EIVLTQSPATLSLSPGERATLSCRASQSVSSFLAWYQQKPGQAPRLLIYTASNRATGIPARFSGSGSGTDFTLTISSLEPEDFAVYYCQQSHRAPWTFGQGTKVEIK is ≥ 6 fold

Field fold above background (entry Fab F73 (VH H66, VL L67) (Fab, V domains shown, Soluble Fab-His; converted to mAb B6) VH: QVQLVQSGAEVKKPGSSVKVSCKASGGTFSSYAISWVRQAPGQGLEWMGGIIPIFGTANYAQKFQGRVTITADESTSTAYMELSSLRSEDTAVYYCARDLYIYGDLDYWGQGTLVTVSS VL: DIQMTQSPSSLSASVGDRVTITCRASQSIGGWLNWYQQKPGKAPKLLIYTASSLQSGVPSRFSGSGSGTDFTLTISSLQPEDFATYYCQQSYTYPITFGQGTKVEIK ) reads ≥ 6 fold

// fold above background value for Fab F86 (VH H80, VL L80) (Fab, V domains shown, Soluble Fab-His; converted to mAb B7) VH: QVQLVQSGAEVKKPGSSVKVSCKASGGTFSSYAISWVRQAPGQGLEWMGGIIPIFGTANYAQKFQGRVTITADESTSTAYMELSSLRSEDTAVYYCARPIGTGYYGFFDYWGQGTLVTVSS VL: DIQMTQSPSSLSASVGDRVTITCRASQSIAKWLNWYQQKPGKAPKLLIYFASSLQSGVPSRFSGSGSGTDFTLTISSLQPEDFATYYCQQSYSTPLTFGQGTKVEIK : ≥ 6 fold
